# protocol_summary: in vivo
# condition: Taconic nude, mouse, in vivo, iv, % ID/g Muscle
endpoint: tissue uptake at 1 h (%ID/g)

compound | readout_unit | assay_result
NC(=O)[C@@H](CCCCNC(=O)CNC(=O)CCC(=O)NCCc1c[nH]cn1)NC(=O)[C@@H](Cc1ccc(O)cc1)NC(=O)[C@@H](CCCCNC(=O)CNC(=O)CCC(=O)NCCc1c[nH]cn1)NC(=O)Cc1ccc(CN2CCN(CC(=O)O)CCN(CC(=O)O)CC2)cc1 [Al^18F(IMP485)] | %ID/g | 0.136

----------
# protocol_summary: in vivo
# condition: Taconic nude, mouse, in vivo, iv, % ID/org Sm. Int.

molecule | tissue uptake dose at 3 h, %ID
NC(=O)[C@@H](CCCCNC(=O)CNC(=O)CCC(=O)NCCc1c[nH]cn1)NC(=O)[C@@H](Cc1ccc(O)cc1)NC(=O)[C@@H](CCCCNC(=O)CNC(=O)CCC(=O)NCCc1c[nH]cn1)NC(=O)Cc1ccc(CN2CCN(CC(=O)O)CCN(CC(=O)O)CC2)cc1 [Al^18F(IMP485)] | 0.059

Value source: patent US20160199524A1
